- Test system: KRAS patient-derived spheroids with HUVEC/MSC, viability
- Method summary: Anticancer human tumor 323965-272-R-J2-PDC patient-derived pancreatic carcinoma cell line growth inhibition [KRAS2]
- Condition summary: second compound 0.316 µM; first compound 1 µM; hits give low values
For each record, write down the corresponding viability, T/C.

Give KRAS patient-derived spheroids with HUVEC/MSC, viability viability, T/C for COc1cc2nccc(Oc3ccc(NC(=O)C4(C(=O)Nc5ccc(F)cc5)CC4)cc3)c2cc1OC + COc1cc2nc(C)nc(NC(C)c3cc(N)cc(C(F)(F)F)c3)c2cc1OC1CCOC1 82.2%

I'm curious: which viability, T/C was measured for CCNC(=O)CC1N=C(c2ccc(Cl)cc2)c2cc(OC)ccc2-n2c(C)nnc21 (centres undefined) + C=CC(=O)N1CCN(c2nc(OCC3CCCN3C)nc3c2CCN(c2cccc4cccc(C)c24)C3)CC1CC#N tested on KRAS patient-derived spheroids with HUVEC/MSC, viability? 29.7%

Give recorded viability, T/C with KRAS patient-derived spheroids with HUVEC/MSC, viability for the following compound: CC1OCC2(CCN(c3cnc(Sc4ccnc(N)c4Cl)c(N)n3)CC2)C1N (centres undefined) + C=CC(=O)N1CCN(c2nc(OCC3CCCN3C)nc3c2CCN(c2cccc4cccc(C)c24)C3)CC1CC#N 17%

What viability, T/C appears in the records for this compound with KRAS patient-derived spheroids with HUVEC/MSC, viability? CC(C)NCC(C(=O)N1CCN(c2ncnc3c2C(C)CC3O)CC1)c1ccc(Cl)cc1 (centres undefined) + C=CC(=O)N1CCN(c2nc(=O)n(-c3c(C)ccnc3C(C)C)c3nc(-c4c(O)cccc4F)c(F)cc23)C(C)C1 33%

---

- System: KRAS patient-derived spheroids with HUVEC/MSC, viability
- Method summary: Anticancer human tumor 323965-272-R-J2-PDC cell line growth inhibition [KRAS2];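 further: spheroids exposed to agents for 7 days; 100% = DMSO vehicle control viability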
- Condition summary: second compound 0.1 µM; first compound 1 µM; hits give low values
Assign labels as follows, please: condition met for viability, T/C below 40%; condition not met for viability, T/C equal to or exceeding 40%.

API: query returns whether the compound falls strictly under 40% in viability, T/C. Query: O=C(c1cc(Cc2n[nH]c(=O)c3ccccc23)ccc1F)N1CCN(C(=O)C2CC2)CC1 + CNCc1ccccc1-c1csc(C(C)Nc2nc(C)nc3cc(OC)c(OC)cc23)c1 condition not met

# TODO verify viability, T/C < 40% strictly for this compound: CCN1CCN(Cc2ccc(Nc3ncc(F)c(-c4cc(F)c5nc(C)n(C(C)C)c5c4)n3)nc2)CC1 + CNCc1ccccc1-c1csc(C(C)Nc2nc(C)nc3cc(OC)c(OC)cc23)c1 condition not met

Answer whether the compound CC1(C)CCC(CN2CCN(c3ccc(C(=O)NS(=O)(=O)c4ccc(NCC5CCOCC5)c([N+](=O)[O-])c4)c(Oc4cnc5[nH]ccc5c4)c3)CC2)=C(c2ccc(Cl)cc2)C1 + CC1OCC2(CCN(c3cnc(Sc4ccnc(N)c4Cl)c(N)n3)CC2)C1N has viability, T/C strictly less than 40% condition not met

Could you please tell me whether viability, T/C recorded for CC1COCCN1c1cc(-c2ccnn2C)c2ccnc(-c3ccn[nH]3)c2n1 (stereo unspecified) + C=CC(=O)N1CCN(c2nc(=O)n(-c3c(C)ccnc3C(C)C)c3nc(-c4c(O)cccc4F)c(F)cc23)C(C)C1 is less than 40%? condition met

Is 40% strictly greater than the compound's reported viability, T/C? compound: CCNC(=O)CC1N=C(c2ccc(Cl)cc2)c2cc(OC)ccc2-n2c(C)nnc21 (stereo unspecified) + CC1OCC2(CCN(c3cnc(Sc4ccnc(N)c4Cl)c(N)n3)CC2)C1N condition met

Quick check: viability, T/C of COC(=O)c1ccc2c(C(=Nc3ccc(N(C)C(=O)CN4CCN(C)CC4)cc3)c3ccccc3)c(O)[nH]c2c1 + CNCc1ccccc1-c1csc(C(C)Nc2nc(C)nc3cc(OC)c(OC)cc23)c1 under 40%? condition not met

Does the reported viability, T/C of COc1cc(Nc2ncc3c(n2)-c2ccc(Cl)cc2C(c2c(F)cccc2OC)=NC3)ccc1C(=O)O + CC1OCC2(CCN(c3cnc(Sc4ccnc(N)c4Cl)c(N)n3)CC2)C1N stay below 40%? condition not met

Lab log: compare recorded viability, T/C with 40%; is it strictly lower for CCNC(=O)CC1N=C(c2ccc(Cl)cc2)c2cc(OC)ccc2-n2c(C)nnc21 (stereo unspecified) + CNCc1ccccc1-c1csc(C(C)Nc2nc(C)nc3cc(OC)c(OC)cc23)c1 ? condition met

Input CC1COCCN1c1cc(-c2ccnn2C)c2ccnc(-c3ccn[nH]3)c2n1 (stereo unspecified) + CNCc1ccccc1-c1csc(C(C)Nc2nc(C)nc3cc(OC)c(OC)cc23)c1 ; condition: viability, T/C strictly below 40%. Does it hold? condition met

hey, is viability, T/C for O=C(c1cc(Cc2n[nH]c(=O)c3ccccc23)ccc1F)N1CCN(C(=O)C2CC2)CC1 + CC1OCC2(CCN(c3cnc(Sc4ccnc(N)c4Cl)c(N)n3)CC2)C1N lower than 40% or not? condition not met

Given Cn1nccc1Nc1nccc(-c2cc3c(s2)C(C)(C)N(CCN2CCOCC2)C3=O)n1 + CC1OCC2(CCN(c3cnc(Sc4ccnc(N)c4Cl)c(N)n3)CC2)C1N , is recorded viability, T/C strictly lower than 40%? condition not met
